Data origin: the NIST ThermoML archive (doi:10.1016/j.fluid.2010.02.022)

Exercise: for every item that follows, state its recorded interfacial tension.
# condition notes: 308 K; 101 kPa; Liquid; Pendant drop method
± gives the expanded uncertainty stated by the source.
In your response, put the unit directly after the numeric value.

Need interfacial tension, item CCCCn1cc[n+](C)c1.O=C([O-])C(F)(F)F [1-butyl-3-methylimidazolium trifluoroacetate] + CCCCCC 8.29 ± 0.18 mN/m

Need interfacial tension, item CCCCCC[n+]1ccn(C)c1.O=S(=O)([N-]S(=O)(=O)C(F)(F)F)C(F)(F)F + CCCCCC 4.88 ± 0.13 mN/m

Need interfacial tension, item CCCCn1cc[n+](C)c1.O=S(=O)([O-])C(F)(F)F [1-butyl-3-methylimidazolium trifluoromethanesulfonate] + CCCCCC 8.58 ± 0.18 mN/m

Need interfacial tension, item CCCC[n+]1ccn(C)c1.O=S(=O)([N-]S(=O)(=O)C(F)(F)F)C(F)(F)F + CCCCCCCCCC 9.1 ± 0.12 mN/m
